Just for reference, the supplement of paper PMC6555819 is where these values come from.

tested on: PPARg homodimer (NR concentration 180 nM); experiment: PBM binding z-score (relative to random genomic background probes); higher = stronger binding; sequences stand for … in GC…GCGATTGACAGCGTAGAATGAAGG
Measured Attribute: PBM binding z-score
Would you mind answering with just the numeric figure?

Consider the worked cases shown below.
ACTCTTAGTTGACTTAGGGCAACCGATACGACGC	0.782
TCTCTTAGTTGATTAGGGCAACCGAAACAGCGGA	1.28
CCTAGTTGGTCAAGGTCACACACGCTATAGGTAC	4.56
GGAACGAGGGCATACGAGTTGATAGCATGGCGAT	0.0813
CCAGACAGGTGAAAGGTAACTCAATCTGGTACGC	1.32

Q) Please provide the recorded PBM binding z-score for ATATGTATGTTACATCCGGGTCATTCAGGCTATG , tested on PPARg homodimer (NR concentration 180 nM).
A) 1.16

Q) Please provide the recorded PBM binding z-score for TAGAGTAGGTTACCAATGGGGCATTCAGCTTTCT , tested on PPARg homodimer (NR concentration 180 nM).
A) 1.06

Q) Please provide the recorded PBM binding z-score for GGAACGAGGGCATTCGAGTTGATAGCCTGGCGAT , tested on PPARg homodimer (NR concentration 180 nM).
A) -0.188

Q) Please provide the recorded PBM binding z-score for TCTGCTAGGTCAACGATGGTCTGCTAATCTGCTA , tested on PPARg homodimer (NR concentration 180 nM).
A) 0.811

Q) Please provide the recorded PBM binding z-score for AGAACGAAGGCACGCTGAGTTGATAGCAGAGTAG , tested on PPARg homodimer (NR concentration 180 nM).
A) -1.17

Q) Please provide the recorded PBM binding z-score for CAAACTAGGTCACAGAGGTCAGAGTCCGTGCGTA , tested on PPARg homodimer (NR concentration 180 nM).
A) 4.05

Q) Please provide the recorded PBM binding z-score for TCTATTAGTTGATTAGGGTAACCGAAACAGCGGA , tested on PPARg homodimer (NR concentration 180 nM).
A) 0.518

Q) Please provide the recorded PBM binding z-score for CGTCCAAGGTCAGAGAGGTCGGTGAATGCCGAGT , tested on PPARg homodimer (NR concentration 180 nM).
A) 0.814

Q) Please provide the recorded PBM binding z-score for CGTCCAAGGTCATAGGAGGTCAGTGCAGACAGAT , tested on PPARg homodimer (NR concentration 180 nM).
A) 4.86

Q) Please provide the recorded PBM binding z-score for CCTTACGGGTCAAGGTTATAGAACGGGTGGTACG , tested on PPARg homodimer (NR concentration 180 nM).
A) 1.83

* * *

test system: RARg homodimer (NR concentration 270 nM); experiment: PBM binding z-score (relative to random genomic background probes); higher = stronger binding; sequences stand for … in GC…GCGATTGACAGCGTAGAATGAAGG
Classes by PBM binding z-score: low (below 0.4), middle (0.4 to below 2), high (2 or more)

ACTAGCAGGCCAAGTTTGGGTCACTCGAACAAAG	middle

Q) Textbook exercise: identify the category of the sequence given here, GCTAGCAGGCCATTTAGGTCACTCAATGACGGGC , according to its measured value.
A) middle

Q) Textbook exercise: identify the category of the sequence given here, GCTTGTAGATCAAGGTTAACAAAGACTAAGCTAA , according to its measured value.
A) low

Q) Textbook exercise: identify the category of the sequence given here, AATACAGGGTCATCGTAAGCCAGAGTACGCACAG , according to its measured value.
A) high

Q) Textbook exercise: identify the category of the sequence given here, CGTCCAAGGTCATAGGAGGTCAGGGAAGACAGAT , according to its measured value.
A) high

Q) Textbook exercise: identify the category of the sequence given here, CAAACTAGGTCACCAGAAGGTCAAAGTCCGCATG , according to its measured value.
A) high

Q) Textbook exercise: identify the category of the sequence given here, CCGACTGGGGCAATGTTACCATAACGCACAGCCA , according to its measured value.
A) low

Q) Textbook exercise: identify the category of the sequence given here, ACTAGCAGGCCAACGGTCACTCAAGATTAGTCCG , according to its measured value.
A) middle

Q) Textbook exercise: identify the category of the sequence given here, ACAGACAGGTGAGGAAGGTAACTCAGGCTATCAT , according to its measured value.
A) middle

Q) Textbook exercise: identify the category of the sequence given here, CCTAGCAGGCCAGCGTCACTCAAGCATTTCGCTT , according to its measured value.
A) low

Q) Textbook exercise: identify the category of the sequence given here, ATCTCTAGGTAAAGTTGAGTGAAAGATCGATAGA , according to its measured value.
A) middle
